# experimentalSystem: recombinant human PAD2 (human, UniProt Q9Y2J8 1-665)
# Sequence (Q9Y2J8 whole entry): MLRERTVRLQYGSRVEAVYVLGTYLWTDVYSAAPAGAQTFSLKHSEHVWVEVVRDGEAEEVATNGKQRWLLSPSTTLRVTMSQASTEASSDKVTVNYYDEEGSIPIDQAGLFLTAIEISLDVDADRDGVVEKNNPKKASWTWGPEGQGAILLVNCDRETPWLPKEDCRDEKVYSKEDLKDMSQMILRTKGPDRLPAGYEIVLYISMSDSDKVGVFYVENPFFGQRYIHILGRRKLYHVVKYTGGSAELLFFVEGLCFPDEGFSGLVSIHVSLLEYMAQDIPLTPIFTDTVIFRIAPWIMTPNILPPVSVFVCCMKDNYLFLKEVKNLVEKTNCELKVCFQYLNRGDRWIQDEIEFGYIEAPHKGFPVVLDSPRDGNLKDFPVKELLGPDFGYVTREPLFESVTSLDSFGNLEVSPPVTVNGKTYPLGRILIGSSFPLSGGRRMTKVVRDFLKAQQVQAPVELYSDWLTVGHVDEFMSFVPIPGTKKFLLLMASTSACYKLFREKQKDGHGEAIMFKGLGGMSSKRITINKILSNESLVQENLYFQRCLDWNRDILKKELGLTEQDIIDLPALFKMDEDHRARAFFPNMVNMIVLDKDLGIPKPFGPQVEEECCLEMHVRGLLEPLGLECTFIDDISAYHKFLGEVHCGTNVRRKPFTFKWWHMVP
# experimentSummary: cell-based or functional assay
Square brackets hold non-standard residues; d marks the D form. * marks the point of attachment. Orn(fluoroacetimidoyl) = N=C(CF)NCCC[C@H](N)C(=O)O; 2Naphthylsulfonyl = O=S(=O)(c1ccc2ccccc2c1)*; AEEA = NCCOCCOCC(=O)O
Entries and their Inhibition of PAD2: value at 20 µM inhibitor (0 µM: 76)
assayMetric: Inhibition of PAD2: value at 20 µM inhibitor (0 µM: 76) (%)

# binder, readoutValue
data = [
    ("Ac-KWH[Orn(fluoroacetimidoyl)]DFF[AEEA]-NH2 (SMILES CC(=O)N[C@@H](CCCCN)C(=O)N[C@@H](Cc1c[nH]c2ccccc12)C(=O)N[C@@H](Cc1c[nH]cn1)C(=O)N[C@@H](CCCNC(=N)CF)C(=O)N[C@@H](CC(=O)O)C(=O)N[C@@H](Cc1ccccc1)C(=O)N[C@@H](Cc1ccccc1)C(=O)NCCOCCOCC(N)=O) [0837-14FA]", 24),
    ("2Naphthylsulfonyl-KWH[Orn(fluoroacetimidoyl)]DFF[AEEA]-NH2 (SMILES N=C(CF)NCCC[C@H](NC(=O)[C@H](Cc1c[nH]cn1)NC(=O)[C@H](Cc1c[nH]c2ccccc12)NC(=O)[C@H](CCCCN)NS(=O)(=O)c1ccc2ccccc2c1)C(=O)N[C@@H](CC(=O)O)C(=O)N[C@@H](Cc1ccccc1)C(=O)N[C@@H](Cc1ccccc1)C(=O)NCCOCCOCC(N)=O) [0837-28FA]", 8),
    ("2Naphthylsulfonyl-KWH[Orn(fluoroacetimidoyl)]DFF-NH2 (SMILES N=C(CF)NCCC[C@H](NC(=O)[C@H](Cc1c[nH]cn1)NC(=O)[C@H](Cc1c[nH]c2ccccc12)NC(=O)[C@H](CCCCN)NS(=O)(=O)c1ccc2ccccc2c1)C(=O)N[C@@H](CC(=O)O)C(=O)N[C@@H](Cc1ccccc1)C(=O)N[C@@H](Cc1ccccc1)C(N)=O) [0837-30FA]", 3),
    ("Ac-KWH[Orn(fluoroacetimidoyl)]DFF-NH2 (SMILES CC(=O)N[C@@H](CCCCN)C(=O)N[C@@H](Cc1c[nH]c2ccccc12)C(=O)N[C@@H](Cc1c[nH]cn1)C(=O)N[C@@H](CCCNC(=N)CF)C(=O)N[C@@H](CC(=O)O)C(=O)N[C@@H](Cc1ccccc1)C(=O)N[C@@H](Cc1ccccc1)C(N)=O) [0748-09FA]", 14),
]
